Attribution: paper PMC9482650

# targetEntity: DLG5_2, Q8TDM6
# Sequence (Q8TDM6 714-800): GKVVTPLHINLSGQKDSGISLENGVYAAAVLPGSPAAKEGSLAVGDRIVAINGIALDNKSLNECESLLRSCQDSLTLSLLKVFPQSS
# methodSummary: holdup assay
# Set-up: key: below the threshold = too weak to quantify, mostly under pKd 3.1 to 4
# details: plain residues with an end cap or a label only (N-terminal biotin on a linker: ttds)

- binder: "SSIDLWETAL [SLC15A5, A6NIM6]"
  pKd: "below the threshold"
- binder: "PPRQRSETQV [HPV82-E6, Q9IR59]"
  pKd: "below the threshold"
- binder: "SHSSKGETAV [FZD7, O75084]"
  pKd: "below the threshold"
